Sourced from PubChem BioAssay AID1578

Below, each entry is listed with its recorded inhibition.
assay: NOD1 signaling inhibitors, primary screen, cell-based, luminescence, uHTS (AID 1578); settings: NOD1-driven NF-kB luciferase reporter cells, at 4 µM, hits give high values;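 note: HEK-293T reporter cells stimulated with the NOD1 agonist gamma-tri-DAP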
Among all 290,000 compounds or so, about 3,000 (1%) were called active. The list comes from a sample in which actives are over-represented; it also holds close analogues and randomly drawn compounds.

Recorded inhibition for Cc1ccccc1N(C(=O)Cc1ccsc1)C(C(=O)NC1CCCCC1)c1ccc(F)cc1 (centres undefined) , please?
-25.2% (inactive)

Also, "CCCCn1c(SCC(=O)Nc2nnc(C)s2)nnc1-c1ccoc1C" please.
8.6% (inactive)

Also, "O=C(C1=C(c2ccccc2)C(=O)c2ccccc2C1=O)c1ccccc1" please.
1.2% (inactive)

Also, "Cc1nc2c(ccc3nc(NC(=O)Cc4cccc5ccccc45)sc32)s1" please.
-33% (inactive)

Also, "CC(=O)Oc1ccc(/C=C(\NC(=O)c2ccco2)C(=O)Nc2ccc(C(C)=O)cc2)cc1" please.
-31.3% (inactive)

Also, "CC(C)(C)n1cnc2cc(NC(=O)c3ccccc3)ccc21" please.
-12.2% (inactive)
